test-target: T1, human GPC3-His protein (human, UniProt P51654 25-559)
T1 construct: Bought protein; also called human GPC3 protein; not shown: His tag
test-details: ELISA, coated human GPC3, antibody 0.01 nM;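 note: Plate-bound antigen coated at 1 µg/mL, antibody incubated 2 h at 37 °C, binding detected by HRP-conjugated secondary antibody with TMB substrate, read as absorbance at 450 nm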
Assign class by OD450 nm: not lower than 0.2 OD450 means TRUE; lower than 0.2 OD450 means FALSE.

INSERT INTO results (binder, group) VALUES
  ('F1.118.4 human-murine chimeric antibody (antibody, human IgG1, kappa, V domains shown) VH: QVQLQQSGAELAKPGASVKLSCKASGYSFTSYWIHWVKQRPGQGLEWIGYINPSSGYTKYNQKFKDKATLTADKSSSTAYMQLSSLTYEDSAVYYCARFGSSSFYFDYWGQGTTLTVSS VL: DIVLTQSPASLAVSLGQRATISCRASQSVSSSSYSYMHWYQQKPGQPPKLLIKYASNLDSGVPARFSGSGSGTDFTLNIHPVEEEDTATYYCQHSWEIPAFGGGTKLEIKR', 'FALSE'),
  ('F1.9.19 human-murine chimeric antibody (antibody, human IgG1, kappa, V domains shown) VH: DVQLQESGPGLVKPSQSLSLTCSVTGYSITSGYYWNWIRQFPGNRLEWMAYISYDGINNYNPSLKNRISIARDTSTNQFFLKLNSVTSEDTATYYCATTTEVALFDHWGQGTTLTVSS VL: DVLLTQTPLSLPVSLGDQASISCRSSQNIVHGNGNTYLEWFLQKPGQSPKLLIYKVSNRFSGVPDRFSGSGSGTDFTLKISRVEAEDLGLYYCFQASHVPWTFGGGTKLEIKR', 'FALSE'),
  ('F4.18.4 human-murine chimeric antibody (antibody, human IgG1, kappa, V domains shown) VH: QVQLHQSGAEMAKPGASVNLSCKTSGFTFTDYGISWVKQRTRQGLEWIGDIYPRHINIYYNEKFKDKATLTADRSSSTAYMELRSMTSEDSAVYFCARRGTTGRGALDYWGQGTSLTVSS VL: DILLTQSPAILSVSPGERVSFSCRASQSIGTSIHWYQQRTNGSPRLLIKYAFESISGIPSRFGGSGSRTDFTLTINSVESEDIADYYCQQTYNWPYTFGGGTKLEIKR', 'TRUE'),
  ('F1.111.11 human-murine chimeric antibody (antibody, human IgG1, kappa, V domains shown) VH: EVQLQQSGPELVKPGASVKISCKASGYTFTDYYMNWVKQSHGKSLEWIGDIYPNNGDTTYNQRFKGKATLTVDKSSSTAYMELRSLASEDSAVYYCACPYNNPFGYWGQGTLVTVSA VL: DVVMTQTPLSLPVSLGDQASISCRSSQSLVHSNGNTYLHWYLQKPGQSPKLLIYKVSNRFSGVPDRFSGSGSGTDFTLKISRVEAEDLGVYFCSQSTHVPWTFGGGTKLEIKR', 'TRUE');

Numbers sourced from patent US20260116991A1.
